tested on: PMA/ionomycin-stimulated peripheral blood mononuclear cell (PBMC); assay: Inhibition of PMA/ionomycin-stimulated peripheral blood mononuclear cell proliferation; type: cell-based; settings: human PBMC from a single donor, 10% human serum, PMA 0.5 ng/ml and ionomycin 500 ng/ml, 72 hours, 3H-thymidine incorporation; read-out: IA50 (the source's name)
pIC50: −log10 of the molar value.
QUANTITY KIND: pIC50

• CC(C)n1c(=O)n(C)c(=O)c2c(C(=O)N3C[C@H](O)CO3)c(Cc3ccnc4ccccc34)sc21 = 8.30
